Reference source for all entries: patent US20230348362A1

# method: Apparent pKa of LNP formulations, TNS fluorescence assay
# Type: physicochemical
# test.context: LNP cationic lipid/DSPC/cholesterol/DMG-PEG 50/10/38.5/1.5 mol %
// values below are reported Apparent Pka

[
  {
    "compound": "CCCCCCCCC(CCCCCCCC)COC(=O)CCCCCN(CCO)CCN(CCCCCOC(=O)CCCCC=C(CCCCCC)CCCCCC)C1CCC1 [Compound 87]",
    "Apparent Pka": 6.476
  },
  {
    "compound": "C/C=C/CN(CCCCCC(=O)OCC(CCCCCCCC)CCCCCCCC)CCN(CCO)CCCCCC(=O)OCC(CCCCCCCC)CCCCCCCC [Compound 41]",
    "Apparent Pka": 6.134
  },
  {
    "compound": "CCCCCCCCCCCNC(=O)CCCCCN(CCN(CCO)CCCCC(COC(=O)CCCCCCC)COC(=O)CCCCCCC)C1CCC1 [Compound 188]",
    "Apparent Pka": 6.738
  },
  {
    "compound": "CCCCCCCCC(CCCCCC)CNC(=O)CCCCCN(CCCCN(CCO)CCCCC(COC(=O)CCCCCCC)COC(=O)CCCCCCC)C1CCCCCC1 (stereo not shown) [Compound 198]",
    "Apparent Pka": 6.984
  },
  {
    "compound": "CCCCCCCCC(CCCCCC)COC(=O)CCCCCN(CCCCN(CCO)CCCCC(COC(=O)CCCCCCC)COC(=O)CCCCCCC)C1CCCCC1 (stereo not shown) [Compound 192]",
    "Apparent Pka": 6.707
  },
  {
    "compound": "CCCCCCCCC(CCCCCCCC)CNC(=O)CCCCCN(CCO)CCN(CCCCCC(=O)NCC(CCCCCCCC)CCCCCCCC)C1CCCCC1 [Compound 13]",
    "Apparent Pka": 6.633
  },
  {
    "compound": "CCCCCCCCC(CCCCCCCC)COC(=O)CCCCCN1CCC(N(CCO)CCCCC(COC(=O)CCCCCCC)COC(=O)CCCCCCC)CC1 [Compound 261]",
    "Apparent Pka": 6.552
  },
  {
    "compound": "CCCCCCCCCCCOC(=O)CCCCCN(CCN(CCO)CCCCCC(=O)OCC(CCCCCCCC)CCCCCCCC)C1CCCCCC1 [Compound 107]",
    "Apparent Pka": 6.411
  },
  {
    "compound": "CCCCCCCCCCCC(=O)OCC(CCCCN(CCO)CCN(CCCCC(COC(=O)CCCCCCCCCCC)COC(=O)CCCCCCCCCCC)C1CCC1)COC(=O)CCCCCCCCCCC [Compound 169]",
    "Apparent Pka": 6.447
  },
  {
    "compound": "CCCCCCCCC(CCCCCC)CNC(=O)CCCCCCCN(CCO)CCN(CCCCC(COC(=O)CCCCCCC)COC(=O)CCCCCCC)C1CCCCCCC1 (stereo not shown) [Compound 215]",
    "Apparent Pka": 6.542
  },
  {
    "compound": "CCCCCCCC/C=C\\CCCCCCCC(=O)OCCCCCN(CCO)CCN(CCCCCNC(=O)CC(CCCCCC)CCCCCCCC)C1CCCCCC1 (stereo not shown) [Compound 152]",
    "Apparent Pka": 6.646
  },
  {
    "compound": "CCCCCCCCC(CCCCCCCC)CC(=O)NCCCCCN(CCN(CCO)CCCCCOC(=O)CC(CCCCCCCC)CCCCCCCC)C1CCC1 [Compound 61]",
    "Apparent Pka": 6.731
  },
  {
    "compound": "CCCCCCCCC(CCCCCCCC)COC(=O)CCCCCN(CCO)CCN(CCCCCC(=O)OCC(CCCCCCCC)CCCCCCCC)C1CCCCC1C (stereo not shown) [Compound 34]",
    "Apparent Pka": 5.485
  }
]
